Origin of the recorded values: PubChem BioAssay (NCI)

Test system: UACC-257 melanoma
Assay: NCI-60 one-dose screen, 48 h (100 = growth as untreated, 0 = no growth, -100 = all killed)
Conditions: 10 µM unless noted
Experimental: Cells are grown in 96 well plates and exposed to the test compound for 48 hours. Compounds are tested at a single concentration, which is 10^-5 M for most compounds. The reported endpoint is percent growth (GI% or GIPRCNT), where numbers from 0 - 100% represent growth inhibition, and numbers from -100% - 0 represent cell death. For example, a value of 40 represents 60% growth inhibition. A value of 0 means no net growth occurred over the course of the experiment. […]
This is part of a sample that, as a whole, favours compounds with a hit. Of some 83,000 tested, about 20% had one in any assay. Calls of active or inactive are those of the source. How the source made its calls: active means growth percent below 10; inactive means the rest.
Parameter Measured: growth

Prompt: Field request: growth | item: `O=c1[nH]cnc2nc[nH]c12`
Completion: 117% (inactive)

Prompt: Field request: growth | item: `Cc1ccc(Nc2nc(NCCO)c3ccccc3n2)cc1C`
Completion: 62% (inactive)

Prompt: Field request: growth | item: `COc1ccc2nc(NC(=O)/C(=C/c3cc(OC)c(OC)c(OC)c3)c3ccc(OC)c(OC)c3)sc2c1`
Completion: 97.2% (inactive)

Prompt: Field request: growth | item: `O=C(N=Nc1c(Cl)c(O)c2ccccc2c1O)C(=O)Nc1cccc(C(F)(F)F)c1`
Completion: 100% (inactive)

Prompt: Field request: growth | item: `COc1ccc(-c2cnc3ccnn3c2-c2cc(OC)c(OC)c(OC)c2)cc1`
Completion: 58.4% (inactive)

====

system: NCI-H522 lung; assay: NCI-60 one-dose screen, 48 h (100 = growth as untreated, 0 = no growth, -100 = all killed); details: 10 µM unless noted
This is part of a sample that, as a whole, favours compounds with a hit. Of some 83,000 tested, about 20% had one in any assay.
Parameter Measured: growth (%)
Give the quantity in %, number only.

- Compound: "O=C(O)C1[S][Sb]([CH](C(=O)O)[CH](C(=O)O)[Sb]2[S]C(C(=O)O)C(C(=O)O)[S]2)[S]C1C(=O)O (centres undefined)"
  Measured Value: 42.4
- Compound: "CC(=O)O[C@H]1[C@H](CC#CC#CC[C@@H]2C[C@]3(C)[C@H]4CC=C5[C@H]6[C@@H](C)[C@H](C)CC[C@]6(C(=O)NCCCCCCCCN)CC[C@@]5(C)[C@]4(C)CC[C@H]3C(C)(C)[C@H]2OC(C)=O)C[C@]2(C)[C@H]3CC=C4[C@H]5[C@@H](C)[C@H](C)CC[C@]5(C(=O)NCCCCCCCCN)CC[C@@]4(C)[C@]3(C)CC[C@H]2C1(C)C"
  Measured Value: 106
- Compound: "Oc1c(C(c2ccc(F)cc2)N2CCCCC2)ccc2cncnc12 (centres undefined)"
  Measured Value: 4.34

Prompt: Field request: growth | item: `CCOc1ccc([C@@H]2[C@@H](Oc3ccccc3)C(=O)N2c2cc(OC)c(OC)c(OC)c2)cc1`
Completion: 10.5

Prompt: Field request: growth | item: CCOC(=O)c1ccccc1SC(C[N+](=O)[O-])c1ccccc1 (centres undefined)
Completion: 88.8

Prompt: Field request: growth | item: `CCCc1cc2c(cc1CN(Cc1cc3c(cc1CCC)OCO3)C(=N)OCC)OCO2`
Completion: 54.2

Prompt: Field request: growth | item: `COc1ccc([C@@H]2[C@@H](Oc3ccccc3)C(=O)N2c2cc(OC)c(OC)c(OC)c2)cc1F`
Completion: -26.1

Prompt: Field request: growth | item: `O=C(c1ccccc1)N(CCCCl)C(=O)N(CCCCl)C(=O)c1ccccc1`
Completion: 88.1

Prompt: Field request: growth | item: `COc1ccc2nc(C)cc(Nc3ccccc3O)c2c1`
Completion: 47.3

Prompt: Field request: growth | item: `CCN(CC)c1ccc(C(=N)c2ccc(N(C)C)cc2)cc1`
Completion: -13.5

Prompt: Field request: growth | item: `Cc1nc2ccc(Nc3nc(Cl)nc(N4CCOCC4)n3)cc2n1Cc1ccccc1`
Completion: -38.6

Prompt: Field request: growth | item: `CC(C)(C)c1ccc(Cn2c(-c3nonc3N)nc3ccccc32)cc1`
Completion: 49.3

Prompt: Field request: growth | item: `Cc1c(O)c(=O)n(-c2ccccc2)n1C`
Completion: 110

Prompt: Field request: growth | item: `O=c1[nH]c2ccccc2n2cc3cccnc3c12`
Completion: 57.6

Prompt: Field request: growth | item: `c1ccc2c(c1)cnc1ccccc12`
Completion: 81.6

Prompt: Field request: growth | item: `Brc1ccccc1Cn1c(-c2cncs2)nc2ccccc21`
Completion: 66.8
